B1: PSD2 (parent)
chain: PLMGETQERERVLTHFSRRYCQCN

Variants of: B1
Assay: protein stability index of a GFP-peptide fusion (GPS, HEK-293T) (PSI 1-6); higher = more stable;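 further: lentivirally expressed fusions sorted by FACS into six bins by GFP to DsRed ratio, PSI derived from sequencing read proportions per bin multiplied by bin number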
Conditions: c terminus: a fixed tail appended
Below is a list of entries, each paired with its recorded protein stability index value.
Give the figure only, with no unit attached.

Here's what some known entries look like.
R19K: 3.17
T14N: 2.63
Q22H: 2.62

Ask: Name the recorded protein stability index of the variant listed here: P1F
Result: 2.48

Ask: Name the recorded protein stability index of the variant listed here: L2W
Result: 2.58

Ask: Name the recorded protein stability index of the variant listed here: V12P
Result: 2.94

Ask: Name the recorded protein stability index of the variant listed here: T6R
Result: 2.95

Ask: Name the recorded protein stability index of the variant listed here: P1R
Result: 4.31

Cited source for all entries: the supplement of paper PMC10567573
